Recorded measurements of pIC50, one per entry
Biological target: T1, CXC chemokine receptor type 4 (CXCR4) (human, UniProt P61073 1-352)
T1 chain: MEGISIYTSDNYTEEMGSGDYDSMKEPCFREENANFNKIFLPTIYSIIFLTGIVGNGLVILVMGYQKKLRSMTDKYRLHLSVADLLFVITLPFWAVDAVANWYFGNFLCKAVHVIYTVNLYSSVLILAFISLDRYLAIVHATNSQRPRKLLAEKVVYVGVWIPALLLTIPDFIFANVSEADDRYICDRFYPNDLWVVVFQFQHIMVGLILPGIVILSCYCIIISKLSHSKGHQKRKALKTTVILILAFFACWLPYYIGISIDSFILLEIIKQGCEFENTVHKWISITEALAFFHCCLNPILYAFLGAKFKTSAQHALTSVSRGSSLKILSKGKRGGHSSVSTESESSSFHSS
Assay: competition
Where no end group is shown, it is not given here. Side-chain parts run from the residue outwards. The star is where a group is joined. Palmitoyl = CCCCCCCCCCCCCCCC(=O)*; Glu = glutamate linker
Hey, just a heads up that pIC50 is the negative log base 10 of the concentration in molar.

[in] pIC50 for ILRWSRKLPCVS [JM#21] ?
[out] 6.68

[in] How about this binder: ILRWSRK-NH2 [JM#118]
[out] 6.74

[in] Please do the same for ILRWSRK([Glu-Palmitoyl])LPCVS [JM#143] as well.
[out] 6.69

[in] How about IVRWSKKVPCVS [WSC02] ?
[out] 6.60

[in] Would you kindly repeat that for ILRWSRK(Palmitoyl)LPCVS [JM#144] ?
[out] 6.90

Source listed as patent US20230131339A1.
